experimental-system: Heat shock factor protein 1 (Mus musculus)
Sequence (P38532 whole entry): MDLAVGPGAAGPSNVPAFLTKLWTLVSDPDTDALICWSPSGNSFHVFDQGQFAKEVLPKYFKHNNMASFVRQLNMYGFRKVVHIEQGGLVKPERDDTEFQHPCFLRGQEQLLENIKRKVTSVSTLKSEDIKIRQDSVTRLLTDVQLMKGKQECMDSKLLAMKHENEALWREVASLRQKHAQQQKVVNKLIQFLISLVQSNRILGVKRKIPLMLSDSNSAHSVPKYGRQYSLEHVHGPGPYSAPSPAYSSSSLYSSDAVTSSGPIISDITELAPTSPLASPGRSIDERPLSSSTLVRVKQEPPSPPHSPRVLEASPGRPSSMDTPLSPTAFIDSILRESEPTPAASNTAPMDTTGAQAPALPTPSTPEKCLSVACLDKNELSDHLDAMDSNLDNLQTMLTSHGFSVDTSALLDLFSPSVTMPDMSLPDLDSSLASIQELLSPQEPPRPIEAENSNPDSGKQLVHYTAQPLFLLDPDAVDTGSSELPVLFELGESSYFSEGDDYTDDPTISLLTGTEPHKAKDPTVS
measurement-description: HSF1 potentiators in luciferase reporter cells, confirmation, cell-based, NIH3T3, luminescence, dose retest (AID 435004);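 further: stress induced by proteasome inhibitor MG132 added 30 min after compound; luciferase reporter driven by HSF1 response element in NIH3T3 cells; actives raise luminescence as potentiators of the MG132 stress response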
Type: functional
Calls of active or inactive are those of the source.
The categories you may choose from are active, inactive

Solved cases (5 shown):
COc1ccc(OC)c(Nc2nc3ccc(C)cc3n3cnnc23)c1: inactive
Cc1ccc(C(NC(=O)/C=C\c2ccc3c(c2)OCO3)C(=O)Nc2ccc3c(c2)OCO3)cc1 (configuration not stated): inactive
CCN(CC)S(=O)(=O)c1ccc(C)c(NC(S)=Nc2cccc(S(=O)(=O)N3CCCCCC3)c2)c1: inactive
CN(C)C(CNC(=O)CCC(=O)c1ccc(Br)cc1)c1ccccc1 (configuration not stated): inactive
COc1ccc(/C=C2\SC(=S)N(CCC(=O)Nc3cccc(O)c3)C2=O)cc1: active

Please examine the following record next.
Ask | Hi team, can someone confirm the assay call for Cc1ccnc(NC(=O)c2cc3cc(F)ccc3s2)c1 ?
Reply | inactive

* * *

IC50 by entry:
experimental-system: Aminopeptidase N (Plasmodium falciparum FcB1/Columbia, UniProt O96935)
Sequence (O96935 whole entry): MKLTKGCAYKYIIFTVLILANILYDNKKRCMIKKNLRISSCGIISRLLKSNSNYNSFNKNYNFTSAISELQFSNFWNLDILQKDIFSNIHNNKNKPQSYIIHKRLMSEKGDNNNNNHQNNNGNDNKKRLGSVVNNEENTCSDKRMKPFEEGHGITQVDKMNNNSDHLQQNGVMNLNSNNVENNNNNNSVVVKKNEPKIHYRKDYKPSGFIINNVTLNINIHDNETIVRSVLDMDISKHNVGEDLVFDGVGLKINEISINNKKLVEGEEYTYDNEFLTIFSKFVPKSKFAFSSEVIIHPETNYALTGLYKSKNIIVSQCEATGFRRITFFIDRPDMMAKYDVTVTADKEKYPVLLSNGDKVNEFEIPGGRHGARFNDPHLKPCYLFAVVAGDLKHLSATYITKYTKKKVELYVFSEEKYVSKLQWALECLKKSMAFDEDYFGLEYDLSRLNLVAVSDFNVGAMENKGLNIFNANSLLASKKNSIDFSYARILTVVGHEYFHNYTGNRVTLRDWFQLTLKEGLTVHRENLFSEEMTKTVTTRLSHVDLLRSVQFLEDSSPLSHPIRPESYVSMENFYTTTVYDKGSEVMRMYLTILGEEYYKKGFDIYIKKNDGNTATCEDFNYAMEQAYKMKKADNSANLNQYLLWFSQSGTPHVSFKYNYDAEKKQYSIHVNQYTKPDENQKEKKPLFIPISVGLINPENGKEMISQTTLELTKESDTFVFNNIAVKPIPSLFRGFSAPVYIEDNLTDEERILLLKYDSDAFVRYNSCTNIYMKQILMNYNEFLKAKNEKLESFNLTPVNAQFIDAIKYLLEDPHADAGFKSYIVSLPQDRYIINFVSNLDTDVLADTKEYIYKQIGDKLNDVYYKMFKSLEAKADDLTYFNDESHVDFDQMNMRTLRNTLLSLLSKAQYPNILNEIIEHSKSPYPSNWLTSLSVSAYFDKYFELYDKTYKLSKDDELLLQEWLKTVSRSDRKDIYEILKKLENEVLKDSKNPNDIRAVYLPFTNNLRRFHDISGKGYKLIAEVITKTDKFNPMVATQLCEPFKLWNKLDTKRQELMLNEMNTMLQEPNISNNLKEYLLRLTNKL
measurement-description: P. falciparum M1AAP inhibitors, biochemical, fluorogenic H-Leu-NHMec substrate, 1536-well (AID 1445)
Set-up: species or system Plasmodium falciparum 3D7, 3D7
The source made the active and inactive calls.

// known answers, use as guide
O=C(NC1CCCC1)c1sc(=S)n2c1[nH]c(=O)c1ccccc12: 35 µM (active)
CN1C(=O)S/C(=C/c2cccn2-c2cccc(C(=O)O)c2)C1=O: 84.3 µM (active)
COc1cc2c3cc1Oc1cc(ccc1O)C[C@@H]1c4c(cc(OC)c(O)c4Oc4ccc(cc4)C[C@H]3N(C)CC2)CCN1C: 15.2 µM (active)
CCOC(=O)c1c(NC(=O)CSc2nnc(C)c(=O)[nH]2)sc2c1CCCC2: 62.1 µM (active)
COc1ccc(/N=C2\S/C(=C\c3ccc(OCC(=O)O)cc3)C(=O)N2CCc2c[nH]c3ccccc23)cc1: 75.7 µM (active)

Ask | Could you tell me which IC50 is on file for COc1cc(C)c2c(c1C=O)Oc1c(c(C)c(O)c3c1C(O)OC3=O)OC2=O (configuration not stated) ?
Reply | 27.3 µM (active)

Ask | Which value of IC50 has been reported for COc1cc(/C=C2/C(=N)N3N=C(c4ccc(C)cc4)SC3=NC2=O)ccc1O in the records?
Reply | 66.1 µM (active)

* * *

The reader will find reported IC50 values listed item by item below.
experimental-system: Sentrin-specific protease 7 (Homo sapiens);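 further: Luminescence-based dose-response confirmation of ultra-high-throughput screening hits, measuring inhibition of SENP7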
Sequence (Q9BQF6 whole entry): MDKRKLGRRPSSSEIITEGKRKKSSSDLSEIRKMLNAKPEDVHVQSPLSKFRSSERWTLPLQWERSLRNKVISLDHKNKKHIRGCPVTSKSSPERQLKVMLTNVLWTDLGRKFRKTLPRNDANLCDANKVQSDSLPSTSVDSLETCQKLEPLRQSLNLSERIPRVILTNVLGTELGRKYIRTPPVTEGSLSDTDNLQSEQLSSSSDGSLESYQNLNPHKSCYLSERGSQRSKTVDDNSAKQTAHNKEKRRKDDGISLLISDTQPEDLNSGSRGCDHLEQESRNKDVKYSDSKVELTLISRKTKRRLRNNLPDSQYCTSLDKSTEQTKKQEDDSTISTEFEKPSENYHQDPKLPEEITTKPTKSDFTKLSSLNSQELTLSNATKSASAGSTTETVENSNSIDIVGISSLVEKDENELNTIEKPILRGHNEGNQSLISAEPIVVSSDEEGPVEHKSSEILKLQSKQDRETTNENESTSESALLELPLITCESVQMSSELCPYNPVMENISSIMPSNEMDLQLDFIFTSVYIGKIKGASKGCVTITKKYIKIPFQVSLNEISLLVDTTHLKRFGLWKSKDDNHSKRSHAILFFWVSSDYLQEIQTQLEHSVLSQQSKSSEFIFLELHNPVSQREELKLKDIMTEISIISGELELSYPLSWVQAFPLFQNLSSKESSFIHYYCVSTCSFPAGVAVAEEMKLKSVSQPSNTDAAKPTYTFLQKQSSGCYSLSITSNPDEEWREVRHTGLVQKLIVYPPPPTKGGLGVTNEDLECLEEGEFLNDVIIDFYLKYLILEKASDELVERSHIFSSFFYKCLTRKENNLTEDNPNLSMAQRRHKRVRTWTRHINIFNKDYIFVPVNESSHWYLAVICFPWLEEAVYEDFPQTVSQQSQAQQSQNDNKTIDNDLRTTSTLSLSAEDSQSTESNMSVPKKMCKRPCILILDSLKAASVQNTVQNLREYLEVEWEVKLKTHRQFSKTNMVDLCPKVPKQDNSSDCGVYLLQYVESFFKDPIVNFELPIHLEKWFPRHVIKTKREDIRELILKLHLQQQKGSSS
Format: functional
Activity calls are given as the source filed them.

Cc1ccnc(Nc2nc(-c3ccccc3)cs2)c1: 1.78 µM (active)
Cc1ccc(Nc2nc(-c3cccnc3)cs2)cc1C: 5.02 µM (active)
O=C(COC(=O)c1cccc(NC(=O)c2ccco2)c1)c1ccc(Br)cc1: 6.05 µM (active)
COc1cc(O)c(CC=C(C)C)c(O)c1C(=O)CCc1ccc(O)cc1 [DIHYDROXANTHOHUMOL]: 7.82 µM (active)
O=C(O)c1ccc(N/N=C/c2cn(Cc3ccccc3F)c3ccccc23)cc1: 3.24 µM (active)

Ask | Which IC50 is reported for this molecule? Clc1ccc(COn2nnc3ccccc32)c(Cl)c1
Reply | 8.88 µM (active)

Ask | Bench note: what IC50 did COc1cccc(OCc2cc(/C=N/Nc3ccc(C(=O)O)cc3)ccc2OC)c1 show?
Reply | 8.85 µM (active)

* * *

experimental-system: Activated CDC42 kinase 1 (Homo sapiens, UniProt Q07912)
Sequence (Q07912 whole entry): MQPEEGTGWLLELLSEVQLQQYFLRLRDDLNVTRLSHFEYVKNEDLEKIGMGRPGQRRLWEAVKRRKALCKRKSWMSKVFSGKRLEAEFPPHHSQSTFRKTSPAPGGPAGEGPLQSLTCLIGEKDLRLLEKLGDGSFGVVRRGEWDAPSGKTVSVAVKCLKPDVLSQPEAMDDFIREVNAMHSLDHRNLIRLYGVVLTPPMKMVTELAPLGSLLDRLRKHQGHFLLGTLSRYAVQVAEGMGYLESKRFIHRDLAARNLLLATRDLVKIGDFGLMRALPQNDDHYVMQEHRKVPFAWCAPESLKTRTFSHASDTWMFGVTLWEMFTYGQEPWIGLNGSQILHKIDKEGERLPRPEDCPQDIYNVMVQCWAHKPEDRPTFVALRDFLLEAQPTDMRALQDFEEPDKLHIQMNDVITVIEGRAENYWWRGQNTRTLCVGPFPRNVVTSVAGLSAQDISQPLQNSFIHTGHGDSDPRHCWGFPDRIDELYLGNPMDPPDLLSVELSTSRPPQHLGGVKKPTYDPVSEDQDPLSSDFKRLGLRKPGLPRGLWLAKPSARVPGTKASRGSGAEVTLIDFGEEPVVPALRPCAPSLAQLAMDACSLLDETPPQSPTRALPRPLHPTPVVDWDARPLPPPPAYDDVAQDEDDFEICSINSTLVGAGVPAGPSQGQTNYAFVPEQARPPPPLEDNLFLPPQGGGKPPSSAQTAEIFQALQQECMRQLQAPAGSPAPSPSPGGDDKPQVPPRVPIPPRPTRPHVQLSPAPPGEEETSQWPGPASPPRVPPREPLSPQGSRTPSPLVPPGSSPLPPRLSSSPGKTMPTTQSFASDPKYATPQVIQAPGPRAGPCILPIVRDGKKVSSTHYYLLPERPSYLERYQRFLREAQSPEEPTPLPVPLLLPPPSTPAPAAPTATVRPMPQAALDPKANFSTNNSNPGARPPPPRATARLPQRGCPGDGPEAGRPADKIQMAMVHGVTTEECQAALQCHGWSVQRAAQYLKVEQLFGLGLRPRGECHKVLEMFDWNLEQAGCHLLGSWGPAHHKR
measurement-description: Navigating the Kinome. Panel member name: ACK1
Format: functional
Activity calls are given as the source filed them.
Result category, one only: class 1 for active, class 0 for inactive

Examples with answers:
O=C(Nc1cccc(C(F)(F)F)n1)Nc1ccnc2cc(Cl)ccc12: class 0
O=c1[nH]c2cc(Br)cnc2[nH]1: class 1
CCC1CC(NS(=O)(=O)C2CC2)CC1c1ncc2cnc3[nH]ccc3n12 (centres undefined): class 1

Turning to the following compound.
Ask | Which outcome was entered for the compound O=C(Nc1cccc(C(F)(F)F)n1)Nc1ccnc2cc(OC(F)F)ccc12 in this test?
Reply | class 0

* * *

System: Vero
measurement-description: cells
Assay type: functional
measurement-setup: Chlorocebus sabaeus
Calls of active or inactive are those of the source.
experimental-readout: CC50

Worked cases, answers included:
CCN(CC)S(=O)(=O)c1ccc(C)c(NC(S)=Nc2cccc(S(=O)(=O)N3CCCCCC3)c2)c1: 18.7 µM (active)
COc1cc2c3cc1Oc1cc(ccc1O)C[C@@H]1c4c(cc(OC)c(O)c4Oc4ccc(cc4)C[C@H]3N(C)CC2)CCN1C: 24.6 µM (active)
Cc1nc([N+](=O)[O-])c(Br)n1Cc1ccc(Cl)c(Cl)c1: 17.5 µM (active)

Here is another compound to look at.
Ask | Give its CC50 value. Item: Cc1ccccc1C(=O)NNC(=S)NC(=O)c1cccs1
Reply | > 25 µM (active)

* * *

experimental-system: Replicative DNA helicase DnaB (Mycobacterium tuberculosis, UniProt P9WMR3)
Sequence (P9WMR3 whole entry): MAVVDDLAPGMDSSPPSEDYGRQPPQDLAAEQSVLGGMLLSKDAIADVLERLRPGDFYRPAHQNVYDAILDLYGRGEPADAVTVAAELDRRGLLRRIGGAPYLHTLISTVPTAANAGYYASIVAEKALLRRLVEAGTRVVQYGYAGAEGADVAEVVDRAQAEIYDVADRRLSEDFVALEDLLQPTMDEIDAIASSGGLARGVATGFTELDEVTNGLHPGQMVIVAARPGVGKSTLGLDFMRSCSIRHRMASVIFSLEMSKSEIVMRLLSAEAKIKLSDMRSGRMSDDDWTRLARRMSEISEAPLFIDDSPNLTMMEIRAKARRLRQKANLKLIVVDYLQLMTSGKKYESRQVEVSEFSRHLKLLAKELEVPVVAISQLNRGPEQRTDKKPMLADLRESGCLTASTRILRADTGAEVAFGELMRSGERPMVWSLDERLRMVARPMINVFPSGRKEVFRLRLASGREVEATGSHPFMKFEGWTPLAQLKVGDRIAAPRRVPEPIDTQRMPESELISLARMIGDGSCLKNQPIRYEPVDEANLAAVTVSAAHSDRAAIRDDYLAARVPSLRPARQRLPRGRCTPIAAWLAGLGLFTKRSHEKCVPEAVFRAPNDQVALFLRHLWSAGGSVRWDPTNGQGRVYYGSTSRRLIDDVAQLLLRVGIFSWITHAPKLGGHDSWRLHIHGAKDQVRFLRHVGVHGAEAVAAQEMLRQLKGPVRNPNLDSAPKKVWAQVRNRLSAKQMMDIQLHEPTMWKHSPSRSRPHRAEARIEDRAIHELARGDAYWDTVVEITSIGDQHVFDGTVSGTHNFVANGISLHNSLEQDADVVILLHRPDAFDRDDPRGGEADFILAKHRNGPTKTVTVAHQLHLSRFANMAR
measurement-description: DnaB intein splicing inhibitors, dose response, biochemical, cell-free fluorescence (AID 449749)
Assay type: functional
Active and inactive are the calls of the source.
experimental-readout: AC50

CCCc1n[nH]c2c1C(c1ccsc1)C(C#N)=C(N)O2 (stereo not given): 16.5 µM (active)

Ask | Sample O=C(Cc1ccccc1)NC1(O)C(=O)c2ccccc2C1=O — what was its AC50?
Reply | 6.13 µM (active)

Ask | // query AC50 value for entry CC(=O)Oc1ccc(N(C(C)=O)S(=O)(=O)c2ccc3ccccc3c2)cc1Br
Reply | 9.4 µM (active)

Ask | AC50 lookup needed for CC1=NN(c2ccc(C(=O)O)cc2)C(=O)/C1=C\c1ccc(OC(=O)c2cccs2)cc1 , thanks.
Reply | 2.08 µM (active)

Ask | Entry under review: Cc1ccc(NC(=O)c2sc3ncnc(N4CCN(c5ccccn5)CC4)c3c2C)c(C)c1 . Reported AC50?
Reply | 15.7 µM (active)

* * *

Test system: Streptococcus
measurement-description: Group A Streptococcus viability loss, dose response, counter-screen for streptokinase expression inhibitor project, luminescence, BacTiterGlo (AID 1915);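 further: potency for reduction of bacterial viability or growth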
Assay type: functional, organism-based
Calls of active or inactive are those of the source.
experimental-readout: EC50

Answered cases to consult:
Oc1cccc2ccc(/C=C/c3cccs3)nc12: 4.2 µM (active)
COc1cc(O)c(CC=C(C)C)c(O)c1C(=O)CCc1ccc(O)cc1 [DIHYDROXANTHOHUMOL]: 3.05 µM (active)
Cc1ccc(Cl)cc1N1CCN(C(=O)c2cccc3c(=O)c(C)c(-c4ccccc4)oc23)CC1: > 150 µM (not active)

Ask | Write down the reported EC50 of O=C(Nc1nnc(-c2ccccc2Cl)o1)c1ccc(S(=O)(=O)N2CCCCCC2)cc1 , test system: Streptococcus.
Reply | 0.793 µM (active)

Ask | Lab request: please report EC50 under test system Streptococcus for O=C(N/N=C/c1cc([N+](=O)[O-])ccc1O)c1cccc(N2CCCC2=O)c1
Reply | 1.9 µM (active)
